- MEASUREMENT_TARGET: HLA-B*38:01
- ASSAY_EXPLANATION: IEDB peptide-MHC binding, purified MHC/direct/fluorescence; filed as Kd, often an IC50 or EC50 that approximates it; bounds were set here for any values at or beyond the usual limits of such assays
- APPLIED_CONDITIONS: source organism: Burkholderia mallei ATCC 23344
pKd: −log10 of the molar value.
ASSAY_ENDPOINT: pKd

         seq  assay_endpoint  measured_value
0  EPFSRRHPL             pKd          ≤ 4.70

====

- MEASUREMENT_TARGET: HLA-A*03:01
- ASSAY_EXPLANATION: IEDB peptide-MHC binding, purified MHC/competitive/radioactivity; filed as Kd, often an IC50 or EC50 that approximates it; bounds were set here for any values at or beyond the usual limits of such assays
- APPLIED_CONDITIONS: source organism: Lassa virus Josiah
ASSAY_ENDPOINT: Kd

          seq  measured_value
0  DAHKKNLYDH         ≥ 70 µM

====

- MEASUREMENT_TARGET: HLA-B*40:01
- ASSAY_EXPLANATION: IEDB peptide-MHC binding, purified MHC/competitive/fluorescence; filed as Kd, often an IC50 or EC50 that approximates it; bounds were set here for any values at or beyond the usual limits of such assays
- APPLIED_CONDITIONS: source organism: Escherichia coli 536
ASSAY_ENDPOINT: Kd (nM)

>>> print(df.to_string())
         seq  measured_value
0  GEDAKLIAV             3.8

====

- MEASUREMENT_TARGET: HLA-A*03:01
- ASSAY_EXPLANATION: IEDB peptide-MHC binding, purified MHC/competitive/fluorescence; bounds were set here for any values at or beyond the usual limits of such assays
- APPLIED_CONDITIONS: source organism: Variola virus
pIC50: −log10 of the molar value.
Reported pIC50 values follow for various sequences
ASSAY_ENDPOINT: pIC50

>>> print(df.to_string())
         seq  measured_value
0  SMRDQRKGR            5.20
1  THKLSLTKL          ≤ 3.83
2  KLLLWFNYL          ≤ 3.16

====

Reported Kd values follow for various sequences
- MEASUREMENT_TARGET: HLA-A*01:01
- ASSAY_EXPLANATION: IEDB peptide-MHC binding, purified MHC/competitive/radioactivity; filed as Kd, often an IC50 or EC50 that approximates it; bounds were set here for any values at or beyond the usual limits of such assays
- APPLIED_CONDITIONS: source organism: Mammarenavirus lassaense
ASSAY_ENDPOINT: Kd

In [3]: df
Out[3]:
          seq  measurement_target  measured_value
0  YFESYVRPFV         HLA-A*01:01       ≥ 70.4 µM
1   ASPILRFLY         HLA-A*01:01        0.331 µM
2   AGFAAGLTY         HLA-A*01:01       ≥ 38.5 µM

====

Reported IC50 values follow for various sequences
- MEASUREMENT_TARGET: HLA-A*02:01
- ASSAY_EXPLANATION: IEDB peptide-MHC binding, purified MHC/competitive/fluorescence; bounds were set here for any values at or beyond the usual limits of such assays
- APPLIED_CONDITIONS: source organism: Zaire ebolavirus
ASSAY_ENDPOINT: IC50

>>> print(df.to_string())
          seq  measurement_target  assay_endpoint  measured_value
 0  GVNNLEHGL         HLA-A*02:01            IC50         6.44 µM
 1  SEELSFTVV         HLA-A*02:01            IC50        ≥ 145 µM
 2  LEELLPAVS         HLA-A*02:01            IC50        ≥ 141 µM
 3  HAYQGDYKL         HLA-A*02:01            IC50         ≥ 78 µM
 4  TIGEWAFWE         HLA-A*02:01            IC50        ≥ 245 µM
 5  TTELRTFSI         HLA-A*02:01            IC50         68.3 µM
 6  EQYQQLREA         HLA-A*02:01            IC50        ≥ 221 µM
 7  VLDHILQKT         HLA-A*02:01            IC50         2.62 µM
 8  KDFFSSHPL         HLA-A*02:01            IC50        ≥ 249 µM
 9  GVIHNSTLQ         HLA-A*02:01            IC50        ≥ 121 µM
10  QVEQHHRRT         HLA-A*02:01            IC50        ≥ 252 µM
11  SHLTTLATI         HLA-A*02:01            IC50         13.2 µM
12  RTLAAMPEE         HLA-A*02:01            IC50        ≥ 351 µM
13  HHQDTGEES         HLA-A*02:01            IC50        ≥ 223 µM
14  STHNTPVYK         HLA-A*02:01            IC50        ≥ 323 µM
15  QQYAESREL         HLA-A*02:01            IC50         58.2 µM
16  YAPFARLLN         HLA-A*02:01            IC50       ≥ 87.8 µM
17  FQRTFSIPL         HLA-A*02:01            IC50         3.55 µM
18  YQVNNLEEI         HLA-A*02:01            IC50         25.6 µM
19  HKNKFMAIL         HLA-A*02:01            IC50        ≥ 782 µM
20  GQFLSFASL         HLA-A*02:01            IC50         3.42 µM
21  NNNTHHQDT         HLA-A*02:01            IC50        ≥ 253 µM
22  YTYPDSLEE         HLA-A*02:01            IC50        ≥ 264 µM
